// provenance: BindingDB's records for doi:10.1016/s0960-894x(99)00332-7

Molecular target: Human immunodeficiency virus type 1 protease (Human immunodeficiency virus 1, UniProt Q72874)
Experiment: ChEBML_79977
Details: pH 4.7
pIC50: −log10 of the molar value.
readoutName: pIC50

[[record]]
molecule = "CC(C)(C)c1cc2c(cc1SC1C(=O)CC(CCc3ccccc3)(c3ccccc3)OC1=O)CCCC2 (configuration not stated)"
reportedresult = 7.55

[[record]]
molecule = "CCc1c(SC2C(=O)CC(CCc3ccccc3)(c3ccccc3)OC2=O)sc2ccccc12 (configuration not stated)"
reportedresult = 7.55


---

Biological target: Human immunodeficiency virus type 1 protease (Human immunodeficiency virus 1, UniProt Q72874)
Test: Inhibitory activity was evaluated against human immunodeficiency virus type 1(HIV-1) protease at pH 6.2
readoutName: IC50 (nM)

(1) CC(C)(C)c1oc2ccccc2c1SC1C(=O)CC(CCc2ccccc2)(c2ccccc2)OC1=O (configuration not stated)
(2) CC(C)(C)c1cc2c(cc1SC1C(=O)CC(CCc3ccccc3)(c3ccccc3)OC1=O)CCC2 (configuration not stated)
-- ask Lab notebook, comparison: 1 versus 2 , higher IC50 goes to which? Return value: the label identifying the chosen record.
-- reply 1
